Measured values drawn from patent US8318725B2 for this set.

Parameter: melting point

// solved cases for melting point follow
CCN1CCN(Cc2cc(S(=O)(=O)n3ccc4ccccc43)ccc2Cl)CC1.Cl.Cl; 196 to 197.1 °C
CN1CCN(Cc2cc(S(=O)(=O)n3ccc4cc(F)ccc43)ccc2Cl)CC1.Cl.Cl; 220.2 to 221.3 °C
COc1ccc2c(c1)c(Br)cn2S(=O)(=O)c1ccc(Cl)c(CN2CCN(C)CC2)c1.Cl.Cl; 195.4 to 199.3 °C
CCN1CCN(Cc2cc(S(=O)(=O)n3cc(Br)c4cc(OC)ccc43)ccc2Cl)CC1.Cl.Cl; 216.9 to 219.7 °C
CCN1CCN(Cc2cc(S(=O)(=O)n3cc(C)c4cc(OC)ccc43)ccc2C)CC1.Cl.Cl; 226.99 °C
COc1ccc2c(ccn2S(=O)(=O)c2ccc(C)c(CN3CCN(C)CC3)c2)c1.Cl.Cl; 198.1 to 199.3 °C
CCN1CCN(Cc2cc(S(=O)(=O)n3cc(C)c4ccccc43)ccc2Br)CC1.Cl.Cl; 204.1 to 206.5 °C

Now look at this one.
Input line: Need melting point of `COc1ccc2c(ccn2S(=O)(=O)c2ccc(Cl)c(CN3CCN(C)CC3)c2)c1.Cl.Cl` , thanks.
Output line: 208.8 to 210.2 °C

---

- Assay overview: Rodent pharmacokinetic study
- Assay type: in vivo, Male wistar rats
- Condition parameters: plasma; Wistar/Male rat, 10 mg/kg, water, Intravenous; read-out: AUC1
Documented AUC across a set of molecules
# value in ng·h/mL; strip the unit string

// solved cases for AUC follow
Cc1ccc(S(=O)(=O)n2ccc3ccccc32)cc1CN1CCN(C)CC1.Cl.Cl; 5130
Cc1cn(S(=O)(=O)c2ccc(Cl)c(CN3CCN(C)CC3)c2)c2ccccc12.Cl.Cl; 808

Now look at this one.
Input line: Need AUC of `CCN1CCN(Cc2cc(S(=O)(=O)n3ccc4ccccc43)ccc2C)CC1.Cl.Cl` , thanks.
Output line: 4070

---

Documented Cmax across a set of compounds
- Assay overview: Rodent pharmacokinetic study
- Assay type: in vivo, Male wistar rats
- Condition parameters: plasma; Wistar/Male rat, 10 mg/kg, water, Oral
# value in ng/mL; strip the unit string

Cc1cn(S(=O)(=O)c2ccc(Cl)c(CN3CCN(C)CC3)c2)c2ccccc12.Cl.Cl; 106
CCN1CCN(Cc2cc(S(=O)(=O)n3ccc4ccccc43)ccc2C)CC1.Cl.Cl; 749

Input line: Need Cmax of `Cc1ccc(S(=O)(=O)n2ccc3ccccc32)cc1CN1CCN(C)CC1.Cl.Cl` , thanks.
Output line: 1380

---

- Assay overview: Rodent pharmacokinetic study
- Type: in vivo, Male wistar rats
- Condition parameters: plasma; Wistar/Male rat, 10 mg/kg, water, Oral
Documented Tmax across a set of molecules
# value in min; strip the unit string

Cc1ccc(S(=O)(=O)n2ccc3ccccc32)cc1CN1CCN(C)CC1.Cl.Cl; 22.8
Cc1cn(S(=O)(=O)c2ccc(Cl)c(CN3CCN(C)CC3)c2)c2ccccc12.Cl.Cl; 22.8

Now look at this one.
Input line: Need Tmax of `CCN1CCN(Cc2cc(S(=O)(=O)n3ccc4ccccc43)ccc2C)CC1.Cl.Cl` , thanks.
Output line: 30
